- ASSAY_NOTES: Measurement of plasma concentration after patch application
- Assay type: in vivo, human
- CONDITION_SET: male, human, in vivo, Cmax, Maximum Value
Cmax listing for selected molecules.
REPORTED_PROPERTY: Cmax (ng/mL)

> print(dat)
                               molecule  numeric.readout
1  COC(=O)c1ccccc1O [Methyl Salicylate]               33
2                       O=C(O)c1ccccc1O             1770

###

- ASSAY_NOTES: Measurement of plasma concentration after patch application
- Format: in vivo, human
- CONDITION_SET: male, human, in vivo, AUC0-24, Maximum Value
REPORTED_PROPERTY: AUC(0-t)

> print(dat)
                               compound         result
1      O=C(O)c1ccccc1O [Salicylic Acid]  11800 ng·h/mL
2  COC(=O)c1ccccc1O [Methyl Salicylate]     50 ng·h/mL
